The measured values listed here are drawn from patent US20090048295A1.

tested.target: C5a receptor (Homo sapiens)
Sequence (P21730 1-350): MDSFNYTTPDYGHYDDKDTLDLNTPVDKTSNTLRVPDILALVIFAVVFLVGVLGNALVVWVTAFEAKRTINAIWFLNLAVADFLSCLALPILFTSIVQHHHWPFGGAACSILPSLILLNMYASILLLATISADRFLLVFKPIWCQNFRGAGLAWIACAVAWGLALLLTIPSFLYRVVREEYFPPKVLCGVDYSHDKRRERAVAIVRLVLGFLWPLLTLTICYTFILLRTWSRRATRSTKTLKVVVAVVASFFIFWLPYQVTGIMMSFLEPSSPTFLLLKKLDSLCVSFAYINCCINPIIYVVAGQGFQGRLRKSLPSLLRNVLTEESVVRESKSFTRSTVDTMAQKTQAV
measurement.description: Calcium Mobilization Assay (C5a-induced Ca2+ mobilization, FLIPR, differentiated U937 cells)
measurement.parameters: […] recombinant human C5a, 20 min pre-incubation, multiple values = duplicate experiments, read-out: C5a Induced Ca Mobil. Average IC50
endpoint: IC50

**Q:** Consider the molecule shown here: CCc1cccc(CC)c1-c1cc(OC)c2c(n1)CCCC2N(C)C1Cc2ccccc2C1 (stereo not drawn) What is its recorded IC50?
**A:** > 10 µM

**Q:** Next: CCc1cccc(CC)c1-c1cc(OC)c2c(n1)CCCC2N1CCc2ccc(C#N)cc2C1 (stereo not drawn)
**A:** > 10 µM

**Q:** Next: CCc1cccc(CC)c1-c1cc(OC)c2c(n1)CCCC2Oc1cc(OC)ccc1C=O (stereo not drawn)
**A:** > 10 µM
